Parameter: interaction score. Scope: all listed entries.
- system: T1, 4H1985-AA
- T1 chain: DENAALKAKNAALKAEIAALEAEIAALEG
- experiment: two-hybrid library CCmax;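 note: natural log of median RNA to DNA barcode read ratio; higher means stronger binding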
- condition-label: mean of both orientations
value-type: interaction score

{"binder": "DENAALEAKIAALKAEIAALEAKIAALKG [4H1350-AA]", "result-value": 0.316}
{"binder": "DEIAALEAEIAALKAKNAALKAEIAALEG [4H121-AA]", "result-value": -1.39}
{"binder": "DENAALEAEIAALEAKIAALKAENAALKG [4H1068-AA]", "result-value": 0.534}
{"binder": "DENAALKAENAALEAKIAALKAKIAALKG [4H1710-AA]", "result-value": 2.15}
